molecular target: human MDR1 P-gp (Homo sapiens, UniProt P08183); construct: expressed in transfected cells; host or cells: MDCK (MDCK-MDR1); assay: Assay D: efflux in MDCK cells transfected with the human MDR1 gene; type: in vitro ADME; details: MDCK-MDR1 monolayers, pH 7.4, 37°C, read-out: Assay D: MDCK efflux ratio (BA/AB)
Sequence (P08183 whole entry): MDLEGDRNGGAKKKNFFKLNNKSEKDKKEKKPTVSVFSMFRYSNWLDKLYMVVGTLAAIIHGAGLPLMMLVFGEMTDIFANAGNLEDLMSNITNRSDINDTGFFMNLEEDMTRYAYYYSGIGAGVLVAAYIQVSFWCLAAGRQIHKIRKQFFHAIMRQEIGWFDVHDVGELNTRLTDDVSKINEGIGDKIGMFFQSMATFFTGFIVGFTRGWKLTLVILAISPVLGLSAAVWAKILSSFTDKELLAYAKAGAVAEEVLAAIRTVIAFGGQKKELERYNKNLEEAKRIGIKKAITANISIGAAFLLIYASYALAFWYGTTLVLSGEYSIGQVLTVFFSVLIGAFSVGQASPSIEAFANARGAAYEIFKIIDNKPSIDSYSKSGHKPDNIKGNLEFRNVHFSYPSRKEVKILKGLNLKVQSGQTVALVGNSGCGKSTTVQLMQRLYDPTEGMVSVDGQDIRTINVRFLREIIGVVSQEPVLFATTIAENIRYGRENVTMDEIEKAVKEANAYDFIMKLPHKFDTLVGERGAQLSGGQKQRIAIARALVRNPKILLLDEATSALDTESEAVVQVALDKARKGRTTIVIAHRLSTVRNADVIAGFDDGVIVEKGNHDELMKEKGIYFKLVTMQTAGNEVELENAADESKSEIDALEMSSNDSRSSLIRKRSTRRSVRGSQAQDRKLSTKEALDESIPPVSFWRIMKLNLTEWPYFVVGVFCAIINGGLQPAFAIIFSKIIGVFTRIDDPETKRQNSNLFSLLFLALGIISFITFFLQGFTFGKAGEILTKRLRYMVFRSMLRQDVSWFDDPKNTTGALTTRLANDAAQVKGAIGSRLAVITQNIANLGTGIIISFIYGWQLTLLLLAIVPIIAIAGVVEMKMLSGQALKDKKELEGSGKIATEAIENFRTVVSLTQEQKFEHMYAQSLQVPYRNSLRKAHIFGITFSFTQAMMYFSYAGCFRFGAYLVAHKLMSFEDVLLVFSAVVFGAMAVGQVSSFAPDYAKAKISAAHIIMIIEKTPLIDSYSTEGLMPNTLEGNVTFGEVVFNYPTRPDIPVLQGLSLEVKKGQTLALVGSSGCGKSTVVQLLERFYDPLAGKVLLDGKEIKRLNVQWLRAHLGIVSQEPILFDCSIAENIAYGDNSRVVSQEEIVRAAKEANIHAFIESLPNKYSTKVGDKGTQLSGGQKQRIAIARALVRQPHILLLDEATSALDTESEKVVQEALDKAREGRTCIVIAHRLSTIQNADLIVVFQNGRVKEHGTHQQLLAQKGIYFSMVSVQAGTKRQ
measured property: efflux ratio
Write the value as a bare number.

Given the entry Cc1nc(C(=O)N(C)CCNc2ncc(Br)cn2)c(-c2ccc(F)cc2)s1 [Example 6 in WO03/051872, reference compound] , report its measured efflux ratio.
0.8

---

molecular target: human orexin 2 receptor (Homo sapiens, UniProt O43614); assay type: cell-based; details: 0.5 nM Orexin A
Sequence (O43614 whole entry): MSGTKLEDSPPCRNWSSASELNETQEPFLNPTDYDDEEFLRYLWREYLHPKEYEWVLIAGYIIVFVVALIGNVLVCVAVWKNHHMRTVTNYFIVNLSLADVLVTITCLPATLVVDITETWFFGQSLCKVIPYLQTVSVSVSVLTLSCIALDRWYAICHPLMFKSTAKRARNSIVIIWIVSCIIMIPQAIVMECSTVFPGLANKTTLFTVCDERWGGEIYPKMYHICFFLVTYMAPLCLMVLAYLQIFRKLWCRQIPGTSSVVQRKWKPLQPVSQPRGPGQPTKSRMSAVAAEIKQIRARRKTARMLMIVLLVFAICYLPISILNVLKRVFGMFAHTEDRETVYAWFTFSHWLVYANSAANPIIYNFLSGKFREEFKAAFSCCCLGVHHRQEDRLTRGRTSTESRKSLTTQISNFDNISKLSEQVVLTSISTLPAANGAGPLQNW
Parameter Kb: see the listing below.
Response body: numeric value in nM, unit text excluded.

Here are 8 molecules together with their reported answers.
smiles structure: CCN(C(=O)c1cncnc1-c1ccccc1)[C@@H](C)CNc1ncc(C(F)(F)F)cn1
Kb / nM: 68
//
smiles structure: CCN(C(=O)c1ccc(F)cc1-c1ncccn1)[C@@H](C)CNc1ncc(C(F)(F)F)cn1
Kb / nM: 76.8
//
smiles structure: CCN(C(=O)c1nccnc1-c1ccccc1)[C@@H](C)CNc1ncc(C(F)(F)F)cn1
Kb / nM: 55.9
//
smiles structure: CCN(C(=O)c1cc(F)ccc1-n1nccn1)[C@@H](C)CNc1ncc(C(F)(F)F)cn1
Kb / nM: 35.3
//
smiles structure: CCN(C(=O)c1nc(C)ccc1-n1cccn1)[C@@H](C)CNc1ncc(C(F)(F)F)cn1
Kb / nM: 129
//
smiles structure: CCN(C(=O)c1ccccc1-c1noc(C)n1)[C@@H](C)CNc1ncc(C(F)(F)F)cn1
Kb / nM: 44
//
smiles structure: CCN(C(=O)c1ccc(F)cc1-c1nnc(C)o1)[C@@H](C)CNc1cnc(C(F)(F)F)cn1
Kb / nM: 222
//
smiles structure: CCN(C(=O)c1cc(F)cnc1-n1nccn1)[C@@H](C)CNc1ncc(C(F)(F)F)cn1
Kb / nM: 1060

Given the entry CCN(C(=O)c1ccccc1-n1nccn1)[C@@H](C)CNc1cnc(C(F)(F)F)cn1 , report its measured Kb.
7.37

Given the entry CCN(C(=O)c1cc(C#N)ccc1-n1nccn1)[C@@H](C)CNc1ncc(C(F)(F)F)cn1 , report its measured Kb.
33.4

Given the entry CC[C@@H](CNc1ncc(C(F)(F)F)cn1)N(C)C(=O)c1nc(C)ccc1-n1cccn1 , report its measured Kb.
974

Given the entry CCN(C(=O)c1c(F)cccc1-c1ncccn1)[C@@H](C)CNc1ncc(C(F)(F)F)cn1 , report its measured Kb.
62

Given the entry CCN(C(=O)c1ncccc1-c1ccccc1)[C@@H](C)CNc1ncc(C(F)(F)F)cn1 , report its measured Kb.
12.5

Given the entry CCN(C(=O)c1cccc(F)c1-c1ncccn1)[C@@H](C)CNc1ncc(C(F)(F)F)cn1 , report its measured Kb.
19.3

Given the entry CCN(C(=O)c1ccc(F)c(F)c1-n1nccn1)[C@@H](C)CNc1ncc(C(F)(F)F)cn1 , report its measured Kb.
46.9

Given the entry CCN(C(=O)c1cccc(F)c1-n1nccn1)[C@@H](C)CNc1cnc(C(F)(F)F)cn1 , report its measured Kb.
10
